experimentSummary: ABTS radical scavenging assay
reportedConditions: 15 min incubation at room temperature, n = 9; read-out: IC50 ABTS radical scavenging ability
experimentalEndpoint: IC50 (µM)

[
  {
    "compound": "COc1cc(C(=O)O)cc(OC)c1O",
    "resultValue": 220
  },
  {
    "compound": "O=C(O)/C=C/c1ccccc1 [trans–cinnamic acid, trans-cinnamic acid]",
    "resultValue": 2120
  },
  {
    "compound": "COc1cc(/C=C/C(=O)O)ccc1O",
    "resultValue": 410
  }
]

Origin of the recorded values: paper PMC8151655
